The origin of these recorded values is patent US8546377B2.

Measurement Target: 5HT2C receptors (Homo sapiens)
Sequence (P28335 33-458): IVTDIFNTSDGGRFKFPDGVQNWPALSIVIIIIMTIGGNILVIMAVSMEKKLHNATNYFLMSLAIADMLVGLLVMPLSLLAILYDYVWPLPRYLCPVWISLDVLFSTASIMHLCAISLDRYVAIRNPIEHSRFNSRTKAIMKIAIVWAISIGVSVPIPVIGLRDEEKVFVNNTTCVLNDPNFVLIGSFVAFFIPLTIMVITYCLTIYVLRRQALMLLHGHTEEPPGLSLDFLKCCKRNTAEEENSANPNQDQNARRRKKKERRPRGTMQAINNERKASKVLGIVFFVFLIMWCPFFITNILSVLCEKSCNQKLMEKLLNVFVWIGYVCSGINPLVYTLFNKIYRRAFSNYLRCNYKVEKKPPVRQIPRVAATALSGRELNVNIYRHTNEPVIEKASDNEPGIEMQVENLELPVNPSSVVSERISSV
Assay Explanation: Human 5-HT2C functional assay in 1321N1 cells (intracellular calcium, FLIPR)
Type: cell-based
Design: expressed in transfected cells; host or cells: 1321N1 cells
Measurement Parameters: 1321N1 cells; percentage relative to the effect of serotonin; read-out: Emax (%), 5-HT2c Agonist Activity
Measured Parameter: Emax (%)
Give the quantity in %, number only.

Worked cases, Emax given:
c1ccc2c(c1)NCCC1CNCCN21 (stereo not shown)
111
O=C1CC2CNCCN2c2ccccc2N1 (stereo not shown)
100
O=C1CC2CNCCN2c2cc(CCc3ccccc3)ccc2N1 (stereo not shown)
104
O=C1CC2CNCCN2c2c(F)cccc2N1 (stereo not shown)
98
O=C1CC2CNCCN2c2cc(F)ccc2N1 (stereo not shown)
100

Query string: Recorded Emax of CCOc1ccc2c(c1)N1CCNCC1CC(=O)N2 (stereo not shown) , please.
Result string: 90

Query string: Recorded Emax of O=C1CC2CNCCN2c2cc(Cl)ccc2N1 (stereo not shown) , please.
Result string: 93

Query string: Recorded Emax of O=C1CC2CNCCN2c2cc(Cl)c(Cl)cc2N1 (stereo not shown) , please.
Result string: 104

Query string: Recorded Emax of Clc1cccc(CN2CCC3CNCCN3c3ccccc32)c1 (stereo not shown) , please.
Result string: 80.5

Query string: Recorded Emax of Cc1ccc2c(c1)N1CCNCC1CC(=O)N2 (stereo not shown) , please.
Result string: 99

Query string: Recorded Emax of Clc1ccccc1CN1CCC2CNCCN2c2ccccc21 (stereo not shown) , please.
Result string: 93

Query string: Recorded Emax of O=C1CC2CNCCN2c2ccc(Br)cc2N1 (stereo not shown) , please.
Result string: 79

Query string: Recorded Emax of O=C1CC2CNCCN2c2cc(/C=C/c3ccccc3)ccc2N1 (stereo not shown) , please.
Result string: 89.5
